Target: T1, human DKK1 (human, UniProt O94907 32-266)
T1 construct: also called huDKK1; hDKK1
T1 sequence: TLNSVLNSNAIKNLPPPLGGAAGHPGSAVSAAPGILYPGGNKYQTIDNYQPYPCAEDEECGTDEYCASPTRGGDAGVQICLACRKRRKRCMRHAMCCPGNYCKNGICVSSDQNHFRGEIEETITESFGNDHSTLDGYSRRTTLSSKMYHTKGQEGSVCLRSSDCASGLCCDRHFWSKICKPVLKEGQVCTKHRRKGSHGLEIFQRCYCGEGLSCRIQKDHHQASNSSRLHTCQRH
Assay: KinExA 3000 equilibrium binding in solution
pKd: −log10 of the molar value.
Parameter Measured: pKd

[[record]]
binder = "6.147.4 (antibody, V domains shown, Fully human hybridoma IgG, lambda (Vl)) VH: QVQLVESGGGVVQPGRSLRLSCAASGFTFSRYDMHWVRQAPGKGLEWVAIIFYDGSNKYYADPVKGRFTISRDNSKNTLYLQMNSLRAEDTAVYYCATLAAAFDYWGQGTLVTVSS VL: YVLTQPPSVSVAPGQTARITCGGNNIGSKSVHWYQQKPGQAPVLVVYDDSDRPSEIPERFSGSNSGNTATLTISRVEAGDEADYYCQVWDSSSDHVVFGGGTRLTVL"
parameter_measured = "pKd"
measurement = 9.90

[[record]]
binder = "5.80.1 (antibody, V domains shown, Fully human hybridoma IgG, lambda (Vl)) VH: EVQLVQSGAEVKKPGESLKISCKGSGYSFTSYWIGWVRQMPGKGLEWMGIIYPGDSDTRYSPSFQGQVTISADKSISTAYLQWSSLTASDTAMYYCARQGESFDYWGQGTLVTVSS VL: QSVLTQPPSVSGAPGQRVTISCTGSSSNIGADYDVHWYQQLPGTAPKLLIYDYSNRPSGVPDRFSGSKSGTSASLAITGLQAEDEADYYCQSYDNSLSGYVVFGGGTKLTVL"
parameter_measured = "pKd"
measurement = 10.22

